Measured melting point by item

- GIVEN SMILES: "CCCc1nc(CCC)n(Cc2ccc(-c3ccccc3/C=C3\\OC(=O)C=C3O)cc2)n1"
  melting point: "160 to 161 °C"
- GIVEN SMILES: "CCCCc1nc(CCc2ccccc2)nn1Cc1ccc(-c2ccccc2/C=C2\\NC(=O)CC2=O)cc1"
  melting point: "188 to 189 °C"
- GIVEN SMILES: "CCCCc1nc(C2CC2)nn1Cc1ccc(-c2ccccc2/C=C2\\OC(=O)C=C2O)cc1"
  melting point: "168 to 170 °C"
- GIVEN SMILES: "CCCc1nc(CCC)n(Cc2ccc(-c3ccccc3/C=C3\\NC(=O)CC3=O)cc2)n1"
  melting point: "179 to 180 °C"
